Values were extracted from the kinase profiling compilation of Christmann-Franck et al. (2016).

Overview of reported kinase still bound, per cent of control across a group of compounds:
- experimental.target: MAP4K5 (human) (UniProt Q9Y4K4)
- Sequence (Q9Y4K4 whole entry, looked up): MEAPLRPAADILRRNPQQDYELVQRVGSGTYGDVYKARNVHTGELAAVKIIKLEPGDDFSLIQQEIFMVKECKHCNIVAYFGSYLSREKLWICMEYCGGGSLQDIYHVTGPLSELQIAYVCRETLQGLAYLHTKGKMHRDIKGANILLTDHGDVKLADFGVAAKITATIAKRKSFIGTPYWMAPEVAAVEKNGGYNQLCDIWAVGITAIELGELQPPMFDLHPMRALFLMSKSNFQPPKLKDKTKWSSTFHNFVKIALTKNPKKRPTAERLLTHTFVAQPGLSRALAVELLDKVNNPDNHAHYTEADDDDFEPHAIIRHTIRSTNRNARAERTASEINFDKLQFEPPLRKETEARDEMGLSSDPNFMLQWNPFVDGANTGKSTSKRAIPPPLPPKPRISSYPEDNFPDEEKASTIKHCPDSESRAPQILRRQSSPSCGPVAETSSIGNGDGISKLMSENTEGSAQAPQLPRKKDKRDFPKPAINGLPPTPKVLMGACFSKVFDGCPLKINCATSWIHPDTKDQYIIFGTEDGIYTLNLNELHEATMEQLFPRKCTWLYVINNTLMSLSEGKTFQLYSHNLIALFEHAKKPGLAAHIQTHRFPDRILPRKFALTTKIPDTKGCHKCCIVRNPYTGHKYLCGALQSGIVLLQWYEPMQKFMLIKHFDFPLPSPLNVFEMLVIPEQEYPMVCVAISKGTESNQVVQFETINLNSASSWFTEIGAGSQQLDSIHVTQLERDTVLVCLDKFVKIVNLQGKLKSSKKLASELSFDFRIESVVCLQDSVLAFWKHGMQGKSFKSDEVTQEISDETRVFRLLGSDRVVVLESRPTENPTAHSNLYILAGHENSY
- assay.overview: KINOMEscan competition binding
- settings: compound 10.0 µM
Provide only the numeric value, understood in %.

Worked set:
Q: Could you share which kinase still bound, per cent of control value was measured for COc1cc(N2CCC(C(N)=O)CC2)ccc1Nc1nc(N)c(Cl)c(Nc2ccccc2S(=O)(=O)C(C)C)n1 ?
Ans: 100

Q: Which kinase still bound, per cent of control value is on record for CCN(CCO)CCCOc1ccc2c(Nc3cc(CC(=O)Nc4cccc(F)c4)[nH]n3)ncnc2c1 ?
Ans: 0.95

Others:
Q: Entry CCOc1cc(N2CCC(O)CC2)ccc1Nc1ncc2c(n1)N(C)c1ccccc1C(=O)N2C : reported kinase still bound, per cent of control = ?
Ans: 100

Q: Query: kinase still bound, per cent of control; subject: COc1cc2c(Nc3ccc(NC(=O)c4ccccc4)cc3)ncnc2cc1OCCCN1CCOCC1
Ans: 2.7

Q: I am curious: what kinase still bound, per cent of control value has been reported for CC1=C(C(=O)Nc2cc3cn[nH]c3cc2F)C(c2ccc(C(F)(F)F)cc2)CC(=O)N1 (stereo not given) ?
Ans: 90
